biological target: cynomolgus PAI-1 (cynomolgus, UniProt P05121 24-402 (human entry), limits assumed); experiment: cell-based or functional assay
Below, each of the binders is paired with its reported IC50 ratio cyno/human value.
reported_metric: IC50 ratio cyno/human

binder="Antibody 11, scFv (scFv, V domains shown) VH: QVQLQQSGAEVKKPGSSVKVSCKASGGTFSSYAISWMRQAPGQGLEWMGGIIPIFGTANYAQKFQGRVTITADESTSTAYMELSGLRSEDTAVYYCAREKRQWLEGHFDYWGRGTPVTVSS VL: DIQMIQSPSFLSASTGDRVTITCQASEGIYHELAWYQQKPGKAPKLLIYRASSLASGAPSRFSGSGSGTDFTLTISSLQPDDFATYYCQQYSNYPLTFGGGTKLEIK" numeric_readout=0.4
binder="Antibody 21, scFv (scFv, V domains shown) VH: PVQLQQSGAEVKKPGSSVKVSCKASGGTFSSYAISWVRQAPGQGLEWMGGIIPTFGTANYAQKFQGRVTITADESTSTAYMELSGLRSEDTAVYYCAREKRQWLEGHFDYWGRGTPVTVSS VL: DIQMAQSPSFLSASIGDRVTITCRASEGIYHNLAWYQQKPGKAPKLLIYRASSLASGAPSRFSGSGSGTDFTLTISSLQPDDFATYYCQQYSNYPLTFGGGTKLEIK" numeric_readout=0.4

Source listed as patent US20120114652A1.
